dH values, listed per item
targetDesc: T1, GII.10 P domain (Vietnam026) (norovirus GII.10 (Vietnam026))
T1 construct: source: E. coli, purified
measurementNotes: ITC
reportedConditions: both partners purified
Write the numeric value and append its unit.

In the examples that follow, each entry is paired with its recorded dH.
Query: What dH value was documented for this binder, Nano-42 (VHH) VHH: QVQLQESGGGLVQPGGSLRLSCAASGSVSRTYVMGWYRQTPGNQRELVATITSVGSTNYADSLKGRFTISRENAENTVYLQMNSLKPEDTAIYYCKYIRYSPIHAPLDYWGQGTQVTVSS ?
Result: -9.84 kcal/mol

Query: What dH value was documented for this binder, Nano-27 (VHH) VHH: QVQLQESGGGLVQPGGSLRLSCAASGTIFSRNIMGWYRQAPGKERELVASIYSDRSTWYAESVEGRFTISRDNVKNTLYLQMNSLKPEDTAMYYCRDRTLGSWGQGTQVTVSS ?
Result: -8.1 kcal/mol

More entries:
Query: What dH value was documented for this binder, Nano-14 (VHH, also called N14; source: E. coli WK6 (pHEN6C vector), purified) VHH: QVQLQESGGGLVQSGGSLRLSCAASRNINSMHVVGWYRQAPGNQRELVASITDDGSTDYVDSVKGRFTISRDIAENTVYLQMNSLNPEDTAVYYCKGTIVVFTTPMHYWGKGTQVTVSS ?
Result: -22 kcal/mol

Query: What dH value was documented for this binder, Nano-4 (VHH) VHH: QVQLQESGGGLVQPGGSLRLFCAASGFTFSSYAMRWYRQAPGKERELVAAITSAGGSTHYADSVKERFTISRDNAKNTMYLQMNSLKPEDTAVYYCNARRDYGDSWFTAGGGYWGQGTQVTVSS ?
Result: -12 kcal/mol
